Dear all, this message contains pIC50 results, target or system Lysine-specific demethylase 5A (Homo sapiens, UniProt P29375).
Give bare numbers, as −log10 of the molar value.

{"smiles.structure": "CCOc1cc(Cl)ccc1COc1ccnn1-c1cc(C(=O)O)ccn1", "assay.metric": "pIC50", "experimental.value": 7.74}

Now take the following compound into account.
Problem: # query: pIC50 of entry O=C(O)c1ccnc(-n2nccc2OCc2ccc(Cl)cc2OCC2CC2)c1
Result: 7.60

====

Target: Lysine-specific demethylase 5B (Homo sapiens)
Sequence (Q9UGL1 whole entry): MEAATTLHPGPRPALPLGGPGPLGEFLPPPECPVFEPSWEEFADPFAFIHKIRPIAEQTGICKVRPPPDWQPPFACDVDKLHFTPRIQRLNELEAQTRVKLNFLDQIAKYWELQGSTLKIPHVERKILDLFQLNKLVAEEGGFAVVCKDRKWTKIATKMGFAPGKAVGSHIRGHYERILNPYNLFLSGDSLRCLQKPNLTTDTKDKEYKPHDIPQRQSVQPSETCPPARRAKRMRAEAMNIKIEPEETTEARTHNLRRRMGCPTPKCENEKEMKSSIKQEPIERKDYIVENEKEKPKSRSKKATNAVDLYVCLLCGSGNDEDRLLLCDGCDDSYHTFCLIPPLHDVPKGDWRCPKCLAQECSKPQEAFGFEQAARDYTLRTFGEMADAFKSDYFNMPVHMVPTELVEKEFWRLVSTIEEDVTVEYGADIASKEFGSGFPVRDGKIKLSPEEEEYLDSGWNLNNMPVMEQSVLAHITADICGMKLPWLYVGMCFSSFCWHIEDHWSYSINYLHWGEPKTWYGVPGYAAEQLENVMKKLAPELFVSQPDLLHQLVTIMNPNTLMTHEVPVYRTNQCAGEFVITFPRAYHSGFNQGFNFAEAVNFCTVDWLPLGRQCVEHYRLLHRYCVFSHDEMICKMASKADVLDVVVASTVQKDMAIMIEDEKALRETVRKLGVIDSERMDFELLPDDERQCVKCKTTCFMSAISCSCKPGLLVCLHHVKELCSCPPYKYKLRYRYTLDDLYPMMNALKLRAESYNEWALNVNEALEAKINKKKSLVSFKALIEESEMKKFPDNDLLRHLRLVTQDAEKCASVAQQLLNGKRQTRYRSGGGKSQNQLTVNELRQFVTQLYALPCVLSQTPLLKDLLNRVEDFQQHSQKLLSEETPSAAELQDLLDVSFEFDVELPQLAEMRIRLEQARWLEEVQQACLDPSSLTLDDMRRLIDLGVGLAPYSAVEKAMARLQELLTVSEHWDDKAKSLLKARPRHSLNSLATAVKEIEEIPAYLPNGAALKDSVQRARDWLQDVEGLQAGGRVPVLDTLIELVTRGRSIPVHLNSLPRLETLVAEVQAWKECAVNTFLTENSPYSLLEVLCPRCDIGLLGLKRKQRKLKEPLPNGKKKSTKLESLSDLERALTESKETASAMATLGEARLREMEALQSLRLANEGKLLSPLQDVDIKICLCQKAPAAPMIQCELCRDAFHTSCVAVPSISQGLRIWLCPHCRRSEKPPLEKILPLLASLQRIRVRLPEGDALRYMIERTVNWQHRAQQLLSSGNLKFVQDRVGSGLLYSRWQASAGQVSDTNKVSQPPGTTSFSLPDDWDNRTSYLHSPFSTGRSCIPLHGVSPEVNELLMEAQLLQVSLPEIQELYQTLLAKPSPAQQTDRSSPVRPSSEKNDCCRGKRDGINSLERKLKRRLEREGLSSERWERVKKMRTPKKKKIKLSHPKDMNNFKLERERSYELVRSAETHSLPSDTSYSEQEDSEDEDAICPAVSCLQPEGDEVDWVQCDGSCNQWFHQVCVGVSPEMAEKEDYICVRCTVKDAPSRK
Kindly state IC50 for each of the entries shown.
One number for each entry, in nM.

{"compound": "O=C(O)c1ccnc(-n2nccc2OCc2ccc(Cl)cc2OCC2CC2)c1 [US20240139197, Compound 36]", "unit.info": "nM", "IC50": 36}

Now take the following compound into account.
Problem: Missing value: IC50, Lysine-specific demethylase 5B (Homo sapiens), entry COc1cc(Cl)ccc1COc1ccnn1-c1cc(C(=O)O)ccn1 [US20240139197, Compound 34] . Fill in?
Result: 3
